Values were extracted from PubChem BioAssay AID488859.

Target: Ubiquitin-conjugating enzyme E2 N (Homo sapiens) (UniProt P61088)
Sequence (P61088 whole entry, looked up): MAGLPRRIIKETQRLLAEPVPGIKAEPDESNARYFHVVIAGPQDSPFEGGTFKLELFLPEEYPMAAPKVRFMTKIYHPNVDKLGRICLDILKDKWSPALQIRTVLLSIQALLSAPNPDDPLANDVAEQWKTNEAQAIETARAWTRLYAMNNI
Assay: retested blockers of UBC13 chain formation – biochemical, TR-FRET, single concentration, confirmation (AID 488859)
Details: UBC13 polyubiquitination, at 10 µM, active compounds read high
In all, about 1,400 compounds went through this assay and about 970 (69%) were called active. Inconclusive results (about 5%) are left out. The set was probably picked from earlier hits. Not all results are given here.
ENDPOINT NAME: inhibition (%)
Numbers only here, please. The scale is %.

Below: 10 molecules and their reported inhibition.
c1ccc2c(CCN3CCNC[C@H]3Cc3cccc4ccccc34)cccc2c1 : 44.3
Cn1c(C(=O)NCCCN2CCN(c3cccc(Cl)c3)CC2)cc2c(=O)n(C)c3ccccc3c21 : 38.7
C[C@@H](CN1CCC[C@H]1CN1C(N)=NC[C@@H]1Cc1ccccc1)N1C[C@@H](Cc2ccccc2)N(CCCC2CCCC2)C1=N : 58.5
C#CCOCCOCCOCCNc1nc(N2CCN(C(=O)[C@H](CCCCN)n3cc([C@@H](N)C(C)CC)nn3)CC2)nc(N2CCN(C(=O)[C@H](Cc3ccc(O)cc3)n3cc([C@@H](N)C(C)CC)nn3)CC2)n1 (some centres not stated) : 105
CN1CCN(CCCNC(=O)c2ccc(/C=C3\Oc4ccccc4N(Cc4ccc(Cl)cc4)C3=O)cc2)CC1 : 111
COC(=O)c1cc(-c2cccs2)nc2ccccc12 : 18.1
C#CCOCCOCCOCCNc1nc(N2CCN(C(=O)C([C@@H](C)CC)n3cc(C(N)COC(=O)C(F)(F)F)nn3)CC2)nc(N2CCN(C(=O)[C@H](CCCCN)n3cc(C(N)CC(C)C)nn3)CC2)n1 (some centres not stated) : 103
CCCC[C@@H]1CN=C(N)N1CCc1cc(C(F)(F)F)cc(C(F)(F)F)c1 : 55.4
CN(C)CCCN(C(=O)c1ccc(S(=O)(=O)N2CCCCCC2)cc1)c1nc2cc3c(cc2s1)OCCO3 : 110
COc1cccc(Cn2cnc3c([N+](=O)[O-])c(C)c(C)cc32)c1 : 63.7

Req: State its inhibition on Ubiquitin-conjugating enzyme E2 N (Homo sapiens) (UniProt P61088): COc1cccc2sc3cc(NCC[C@@H]4CCCN4C)ccc3c(=O)c12
Resp: 41.3

Req: Now consider Cc1cc(C)c(NC(=O)C[N+](C)(C)CC(O)COc2cccc3ccccc23)c(C)c1 (configuration not stated) and answer again.
Resp: 60.3

Req: Now consider CN(C)CCCN(C(=O)c1ccc(S(=O)(=O)N2CCCCCC2)cc1)c1nc2ccc(Br)cc2s1 and answer again.
Resp: 107

Req: Now consider Cc1cccc(-c2nc3ccc(C(=O)NCCN4CCN(C)CC4)cc3nc2-c2cccc(C)c2)c1 and answer again.
Resp: 72.8

Req: Now consider CCN(CC(=O)NCc1cccs1)C(=O)c1cccc(S(=O)(=O)Nc2ccccc2OC)c1 and answer again.
Resp: 106

Req: Now consider CCOC(=O)c1ccc(NC(=O)c2nc[nH]c2C(=O)NCc2ccccc2)cc1 and answer again.
Resp: 25.1

Req: Now consider C#CCOCCOCCOCCNc1nc(N2CCN(C(=O)C(Cc3ccc(O)cc3)n3cc(C(N)CC(C)C)nn3)CC2)nc(N2CCN(C(=O)C(Cc3ccc(O)cc3)n3cc(C(N)C(C)CC)nn3)CC2)n1 (configuration not stated) and answer again.
Resp: 23.8
